Data credit: PubChem BioAssay

assay: FRG1 expression reporter modulators in myotubes – cell-based, C2C12 myotubes, firefly/Renilla luciferase, luminescence, FRG1 inhibition for FSHD, primary screen (AID 1084); conditions: FRG1 promoter luciferase, higher = more signal, called active from +8 up or from −8 down
Each entry below carries its reported z-score.
Please state the value as a number alone, without comment.

The cases that follow already have their z-score on record.
MOLECULE: CC1CC/C=C\[C@H]2OC34C=CCN(C(C)(C)C)C(=O)[C@H]3N(CCCCCO)C(=O)[C@@H]4C2C(=O)O1 (stereo not given in full)
VALUE_MEASURED: -0.0661
--
MOLECULE: COC(=O)[C@@]1(Cc2ccc(OC)cc2)[C@H]2c3cc(C(=O)N4CCCC4)n(CCc4c[nH]c5ccc(O)cc45)c3C[C@H]2CN1C(=O)c1ccccc1
VALUE_MEASURED: 0.829
--
MOLECULE: CN1C2C=C(CCCO)C(C3C(=O)N(C(N)=O)C(=O)C32)C1C1CC1 (stereo not given)
VALUE_MEASURED: 0.397
--
MOLECULE: CC#CCO[Si](C#Cc1ccccc1)(C(C)C)C(C)C
VALUE_MEASURED: 0.289
--
MOLECULE: CC(C)NC(=O)[C@@]1(c2ccc([N+](=O)[O-])cc2)CC(=O)N(C2CCCCC2)[C@@H]1c1ccc(CO)cc1
VALUE_MEASURED: -0.629

What does the record list as z-score for `C=CCN1Cc2ccccc2[C@@H]2OC(c3ccc(OCCCO)cc3)=N[C@]2(CC=C)C1=O` ?
-0.479

----------
target: Calmodulin-1 (Homo sapiens) (UniProt P0DP23); experiment: small molecules binding calmodulin-1 with EGTA – biochemical, small-molecule microarray, Cy5-labelled CALM1, profiling panel (AID 1111); details: Cy5-CALM1 binding fluorescence, higher = more signal;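 also: labelled calmodulin applied in Tris saline Tween buffer holding calcium plus EGTA and DTT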
MEASURED_PROPERTY: composite z-score
Please state the value as a number alone, without comment.

MOLECULE: COC(=O)[C@@]1(Cc2ccc(OC)cc2)[C@H]2c3cc(C(=O)N4CCCC4)n(CCc4c[nH]c5ccc(O)cc45)c3C[C@H]2CN1C(=O)c1ccccc1
MEASURED_PROPERTY: composite z-score
VALUE_MEASURED: 0.797

What does the record list as composite z-score for COc1cc(NN2C(C(O)c3cc(OC)c(OC)c(OC)c3)C=CC3C(=O)N(C)C(=O)C32)cc(OC)c1OC (centres undefined) ?
1.34

What does the record list as composite z-score for O=C(Cc1ccccc1)[C@H]1C2C=CCCC(c3ccccc3)=C2CN1Cc1ccccc1 (some centres undefined) ?
-0.185

What does the record list as composite z-score for `CC(C)(C)OC(=O)COc1cccc(C(=O)CCN2CCOCC2)c1` ?
-0.501

----------
system: Wnt5a (protein binding on small-molecule microarray); assay: small molecules binding Wnt5a protein – biophysical, small-molecule microarray, 635/667 nm fluorescence, primary screen (AID 1142); details: 635 nm fluorescence, higher = more signal;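 also: fluorescence read at 667 nm with signal to noise per printed feature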
Each entry below carries its reported composite z-score.
Please state the value as a number alone, without comment.

The cases that follow already have their composite z-score on record.
COMPOUND: COc1cc(C(O)C2C=CC3C(=O)N(C)C(=O)C3N2Nc2ccccc2)cc(OC)c1OC (stereo not drawn)
MEASURED_PROPERTY: composite z-score
VALUE_MEASURED: 0.238

COMPOUND: COC(=O)C1(CC(C)C)C=C2C(=C(c3ccccc3)C(=O)C2C)CN1 (stereo not drawn)
MEASURED_PROPERTY: composite z-score
VALUE_MEASURED: 0.894

COMPOUND: CCCCC(CC)C(O)C1C=CC2C(=O)N(c3ccccc3)C(=O)C2N1Nc1ccccc1F (stereo not drawn)
MEASURED_PROPERTY: composite z-score
VALUE_MEASURED: 0.507

COMPOUND: C=C[C@@H](CO)N(Cc1ccc(OC)cc1)S(=O)(=O)c1ccc(Br)cc1
MEASURED_PROPERTY: composite z-score
VALUE_MEASURED: -0.0447

COMPOUND: CC(=O)N1CC2(CC2)CC1c1ccccc1 (stereo not drawn)
MEASURED_PROPERTY: composite z-score
VALUE_MEASURED: 0.898

What does the record list as composite z-score for `C=CCNC(=O)[C@H]1[C@@H]2C(=O)O[C@@H](c3ccccc3)[C@@H](c3ccccc3)N2[C@@H](c2ccccc2OCCO)[C@]12C(=O)N(C(=O)OCCOC)c1ccc(C#CC3(O)CCCCCC3)cc12` ?
0.358

What does the record list as composite z-score for CC(C)c1ccc(NN2C(C(O)c3ccc(F)cc3)C=CC3C(=O)N(c4ccccc4)C(=O)C32)cc1 (stereo not drawn) ?
0.306

What does the record list as composite z-score for `COC(=O)[C@@]1(Cc2ccc(OC)cc2)[C@H]2c3cc(C(=O)N4CCCC4)n(CCO)c3C[C@H]2CN1C(=O)c1ccccc1` ?
0.925

----------
Each entry below carries its reported z-score.
test: FRG1 expression reporter modulators in myotubes – cell-based, C2C12 myotubes, firefly/Renilla luciferase, luminescence, FRG1 inhibition for FSHD, primary screen (AID 1084); conditions: FRG1 promoter luciferase, higher = more signal, called active from +8 up or from −8 down
Please state the value as a number alone, without comment.

COMPOUND: O=C1N(CCS(=O)(=O)c2ccccc2)c2ccccc2[C@H]2OC(c3ccc(OCCCO)cc3)=N[C@@]12Cc1ccccc1
z-score: -0.375
//
COMPOUND: OCCCC1=CC(c2ccc(CN3CCCC3)cc2)N(Cc2cc3c(cc2Br)OCO3)CC1 (configuration not stated)
z-score: -0.0594
//
COMPOUND: CCOC(=O)C[C@H]1[C@H](OC(=O)Cc2ccc3c(c2)OCO3)[C@@H](NC(=O)C2CCCCC2)c2cc(OCCCO)ccc2N1C(=O)c1ccccc1
z-score: -1.14

What does the record list as z-score for CC1CC/C=C\[C@H]2OC34C=CCN(c5ccc6ccccc6c5)C(=O)[C@H]3N(CCCO)C(=O)[C@@H]4C2C(=O)O1 (some centres not stated) ?
2.62

What does the record list as z-score for `[N-]=[N+]=Nc1ccccc1C[C@]1(C(=O)NCCN2CCOCC2)COC(c2ccc(OCCCO)cc2)=N1` ?
0.706

What does the record list as z-score for `CN(C)C(=O)[C@@]1(Cc2ccccc2CN=[N+]=[N-])N=C(c2ccc(OCCCO)cc2)O[C@H]1c1ccccc1N=[N+]=[N-]` ?
-1.34

What does the record list as z-score for `C=C(COC)/C(=C/C[C@H](OC(=O)c1ccncc1)c1ccccc1OCCO)c1cc(C(=O)OC)ccc1OC` ?
-0.872

----------
molecular target: Concanavalin-A (Canavalia ensiformis) (UniProt P02866); assay: compounds binding concanavalin A lectin – biochemical, small-molecule microarray, Alexa647 label, 635 nm, artefact control for SMM control protein annotation, primary screen (AID 1127); conditions: ConA-A647 binding fluorescence, higher = more signal;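 also: z combines 667 nm emission intensity with signal-to-noise across three replicate slides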
Sequence (P02866 whole entry, looked up): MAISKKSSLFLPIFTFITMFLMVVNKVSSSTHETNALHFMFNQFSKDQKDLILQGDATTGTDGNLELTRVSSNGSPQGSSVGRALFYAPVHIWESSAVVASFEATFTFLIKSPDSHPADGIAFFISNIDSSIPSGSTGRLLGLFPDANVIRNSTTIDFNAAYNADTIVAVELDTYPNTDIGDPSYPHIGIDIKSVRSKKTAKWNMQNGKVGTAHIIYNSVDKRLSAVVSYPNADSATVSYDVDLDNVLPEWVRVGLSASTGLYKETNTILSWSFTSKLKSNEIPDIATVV
MEASURED_PROPERTY: composite z-score

The cases that follow already have their composite z-score on record.
COMPOUND: C=C(C(=O)CC[C@H](OC(=O)c1ccccc1-c1ccccc1C(=O)O)c1cccc(OCCO)c1)C(C)C
composite z-score: 0.0561
--
COMPOUND: C#CCN([C@@H](Cc1ccccc1)C(=O)OC)[C@@H](/C=C/C1CC1)[C@H](O)Cc1ccccc1
composite z-score: -1.5
--
COMPOUND: CC1=C2[C@@H](CCc3ccccc3)OB(O)C[C@@H]2[C@@H]2C(=O)N(C)C(=O)[C@@H]2C1
composite z-score: 0.245
--
COMPOUND: Cc1ccc(S[C@]2(C(=O)NCCN3CCOCC3)CC(=O)N(Cc3ccccc3Cl)[C@@H]2c2ccc(CO)cc2I)cc1
composite z-score: -0.763
--
COMPOUND: O=C(Cc1ccccc1)[C@H]1C2C=CCCC(c3ccccc3)=C2CN1Cc1ccccc1 (stereo partly specified)
composite z-score: -0.22
--
COMPOUND: O=C1OCCC/C=C\[C@H]2OC34C=CCN(c5ccc6ccccc6c5)C(=O)[C@H]3N(CCO)C(=O)[C@@H]4C12 (stereo partly specified)
composite z-score: -1.39

What does the record list as composite z-score for CCCCCN1CC=CC23O[C@@H]4/C=C\CCC(C)OC(=O)C4[C@H]2C(=O)N(C(CO)C(C)C)[C@@H]3C1=O (stereo partly specified) ?
0.192

What does the record list as composite z-score for `NC(=O)NCC#Cc1ccc2c(c1)[C@]1(C(=O)N2)[C@H](c2ccccc2OCCO)N2[C@H](c3ccccc3)[C@H](c3ccccc3)OC(=O)[C@H]2[C@@H]1C(=O)O` ?
0.96

----------
test: blockers of DNA damage checkpoint Chk1 activation – imaging, HeLa, hydroxyurea, phospho-Chk1 nuclear intensity, primary screen (AID 1187); settings: hydroxyurea-induced phospho-Chk1 immunofluorescence imaging, higher = more signal; also: test concentration not given here
MEASURED_PROPERTY: z-score
Please state the value as a number alone, without comment.

The cases that follow already have their z-score on record.
COMPOUND: CCCC1(C(=O)OC)C=C2C(=C(C)C(=O)C2C)CN1 (stereo not drawn)
z-score: 0.909
//
COMPOUND: C=CC[C@]1(C(=O)N2CCOCC2)COC(c2ccc(OCCCO)cc2)=N1
z-score: -0.0405
//
COMPOUND: C=CC[C@H](OC(=O)Nc1ccc(SC)cc1)c1ccc(O)c2ccccc12
z-score: 0.142

What does the record list as z-score for COc1cc(C(O)C2C=CC3C(=O)N(C)C(=O)C3N2Nc2ccccc2)cc(OC)c1OC (stereo not drawn) ?
-0.0016

What does the record list as z-score for `O=C1N(Cc2ccccc2)c2ccccc2C[C@]12N=C(c1ccc(OCCCO)cc1)O[C@@H]2c1ccccc1` ?
-0.154

What does the record list as z-score for `COCC(=C=CC[C@H](O)c1ccc(CO)o1)CCO` ?
0.295

What does the record list as z-score for CC1CC/C=C\[C@H]2OC34C=CCN(C(C)(C)C)C(=O)[C@H]3N(CCCCCO)C(=O)[C@@H]4C2C(=O)O1 (stereo partly drawn) ?
0.408
